# credit: ChEMBL document CHEMBL2218924

# residual activity listing for each entry below
# Assay target: G protein-coupled receptor kinase 6 (Homo sapiens)
# Applied conditions: at 10 µM
Give just the number in %; leave the unit off.

Worked examples follow.
> print(dat)
                            compound.string  recorded.result
1  Oc1n[nH]c2nnc(-c3c(-c4ccccc4)nn4ccccc34)cc12               85
2               Cc1cc2ncc(-c3ccccc3)nc2cc1C              101

Shift focus to the following entry.
stdin: Quote residual activity reported for `Oc1ccc(-c2nc(-c3ccc(F)cc3)c(-c3ccncc3)[nH]2)cc1` please.
stdout: 97

====

# Assay target: Serine/threonine-protein kinase haspin (Homo sapiens)
# Applied conditions: at 10 µM
Response field label takes MET when residual activity is strictly below 80% and NOT MET in all other cases.

These recorded examples may help you get a feel for the data.
> print(dat)
                            compound.string    class
1  Nc1n[nH]c2nnc(-c3c(-c4ccccc4)nn4ccccc34)cc12  NOT MET
2  O=C1NC(=O)/C(=C/c2ccc3c(c2)OC(F)(F)O3)S1      MET
3  N#CCCc1ccc2c(c1)-c1[nH]c3ccc([N+](=O)[O-])cc3c1CC(=O)N2      MET
4  CN(C)CCCn1cc(C2=C(c3c[nH]c4ccccc34)C(=O)NC2=O)c2ccccc21      MET
5  O=[N+]([O-])c1ccc(-c2nc(-c3ccc(F)cc3)c(-c3ccncc3)[nH]2)cc1      MET
6          Cn1nc2c3c(cccc31)C(=O)c1ccccc1-2      MET
7           Ic1cccc(CSc2nnc(-c3ccncc3)o2)c1  NOT MET
8      CN(C)c1ccc(/C=C2\C(=O)Nc3ccccc32)cc1      MET

stdin: hey, is residual activity for `O=c1cc(-c2cccc3c2Sc2ccccc2S3)oc(N2CCOCC2)c1` lower than 80% or not?
stdout: NOT MET

stdin: Report whether reported residual activity is lower than 80% (strictly) for `Oc1n[nH]c2nnc(-c3c(-c4ccccc4)nn4ccccc34)cc12`
stdout: NOT MET

====

# Assay target: Maternal embryonic leucine zipper kinase (Homo sapiens)
# Applied conditions: at 10 µM
Assay metric: residual activity (%)
Only the number, expressed in %, is required.

Guide cases for residual activity, answers given:
> print(dat)
                                   molecule  recorded.result
1              Oc1c2ccccc2c2c3c(cccc13)N=N2                0
2  O=Nc1c(-c2c(O)[nH]c3ccccc23)[nH]c2ccccc12                7
3  O=C1NC(=O)c2c1c1c3ccccc3[nH]c1c1[nH]c3cc(Br)ccc3c21               82

Kindly review the next molecule as well.
stdin: Specify measured residual activity for `Nc1ccc2ncnc(NCCc3ccc(Oc4ccccc4)cc3)c2c1` .
stdout: 40

====

# Assay target: Insulin receptor (Homo sapiens)
# Applied conditions: at 1 µM
Assay metric: residual activity (%)
Supply the numeric figure in %, leaving out any unit text.

Some solved cases for reference:
Compound string	Unit descriptor	residual activity
Cn1nc2c3c(cccc31)C(=O)c1ccccc1-2	%	94
O=C1NC(=O)c2c1c1c3ccccc3[nH]c1c1[nH]c3cc(Br)ccc3c21	%	99
Nc1n[nH]c2nnc(-c3c(-c4ccccc4)nn4ccccc34)cc12	%	70

stdin: Annotate the compound `O=C1c2ccccc2-[n+]2ccc3c([nH]c4ccccc43)c21` with its measured residual activity.
stdout: 84

stdin: Tell me its residual activity given `O=C1NC(=O)c2cc(Nc3ccc(F)cc3)c(Nc3ccc(F)cc3)cc21` as the entry.
stdout: 115
